Listing of recorded OD450 by entry.
# target.of.assay: T1, monkey CD22 protein (ACROBiosystems, catalog number SI2-R52Ha) (monkey, UniProt F6W485 20-688)
# T1 construct: commercial protein; also called monkey CD22-ECD; monkey CD22-ECD-His
# T1 sequence: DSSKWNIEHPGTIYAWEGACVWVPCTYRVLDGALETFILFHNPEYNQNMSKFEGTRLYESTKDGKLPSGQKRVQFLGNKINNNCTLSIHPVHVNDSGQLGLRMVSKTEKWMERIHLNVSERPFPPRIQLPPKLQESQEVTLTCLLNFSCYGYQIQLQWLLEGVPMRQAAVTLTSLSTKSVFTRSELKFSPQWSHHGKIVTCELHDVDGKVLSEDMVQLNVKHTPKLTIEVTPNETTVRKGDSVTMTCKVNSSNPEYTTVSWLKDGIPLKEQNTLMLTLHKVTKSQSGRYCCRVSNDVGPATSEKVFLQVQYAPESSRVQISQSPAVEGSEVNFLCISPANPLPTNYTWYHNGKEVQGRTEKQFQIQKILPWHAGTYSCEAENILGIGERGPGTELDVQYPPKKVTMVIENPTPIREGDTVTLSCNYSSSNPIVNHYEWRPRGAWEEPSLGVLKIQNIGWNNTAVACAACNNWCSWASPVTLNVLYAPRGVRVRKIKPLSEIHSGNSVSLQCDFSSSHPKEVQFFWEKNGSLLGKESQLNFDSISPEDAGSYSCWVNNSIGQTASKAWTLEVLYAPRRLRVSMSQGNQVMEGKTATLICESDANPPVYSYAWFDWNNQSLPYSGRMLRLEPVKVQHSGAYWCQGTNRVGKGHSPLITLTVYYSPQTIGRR
# assay.text: ELISA, coated monkey CD22 protein, antibody 0.01 nM

>  <binder>
F2.104.10 (antibody, human IgG1, lambda, V domains shown, human-murine chimeric IgG1 lambda) VH: EVQLVESGGGFVKPGGSLKLSCAASGFTFSDYGMNWFRQAPEKGLEWVAYISRGSHTIYYADTVKGRFTISRDNAENTLFLQMTSLRSNDTAMYYCVRMAGYYAMDYWGQGTSLTVSS VL: QLVLTQSSSASFSLGASAKLTCTLSSQHSSYIIEWYQQQPLKPPKYVMEVKKDGSHSTGDGIPDRFSGSSSGADRYLSISNIQSEDEAIYICGVGDTIKEQFVYVFGGGTKVTVLG

>  <unit.tag>
OD450

>  <OD450>
0.06

$$$$
>  <binder>
F1.200.11 (antibody, human IgG1, kappa, V domains shown, human-murine chimeric IgG1 kappa) VH: QNQLVQSGPELKKPGETVKISCKASGYTFTTAGMQWVQKMPGKGFKWIGWINTLSGEPKYAEDFKGRFAFSLETSATTAYLQISNLKNEDTATYFCARAYYSNLYWYFDVWGTGTTVTVSS VL: DIVMTQSQKFMSTTVGDRVTITCKASQNVVTAVAWYQQKPGQSPKVLIYSASNRYSGVPDRFTGSGSGTDFTLTISNMHSEDLANYFCHQYSSYPFTFGSGTKLEIKR

>  <unit.tag>
OD450

>  <OD450>
0.19

$$$$

Reference source for all entries: patent US20240084003A1
